# Test system: NFκB
# assay.text: NFκB agonist assay in A549 SPAP cells;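 further: maximum inhibition of the TNFα-induced NFκB-driven signal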
# Assay type: cell-based
# condition.parameters: Homo sapiens, A549, A549 SPAP cells; >85% = full agonist, ≧20% = partial or full agonist; read-out: average maximum asymptote in the NFkB assay
readout.label: Emax

Provide Emax value for the following compound: CCN(CC(O)(CNC(=O)c1cnn(-c2cc(F)cc(F)c2)c1N)C(F)(F)F)C(=O)c1c(F)cccc1F (racemic) [Example 35 (racemic)] > 85%

Provide Emax value for the following compound: Nc1c(C(=O)NCC(O)(CNC(=O)c2c(F)cccc2Cl)C(F)(F)F)cnn1-c1ccc(F)cc1 (single isomer, unassigned) [Example 7 Enantiomer 2] ≥ 20%

Provide Emax value for the following compound: Nc1c(C(=O)NCC(O)(CNC(=O)c2c(Cl)cccc2Cl)C(F)(F)F)cnn1-c1ccc(F)cc1 (single isomer, unassigned) [Example 3 Enantiomer 1] ≥ 20%

---

List of IC50 values.
# target.or.test.system: glucocorticoid receptor (Homo sapiens)
# Construct: a partially purified full length glucocorticoid receptor
# Sequence (P04150 whole entry, species assumed): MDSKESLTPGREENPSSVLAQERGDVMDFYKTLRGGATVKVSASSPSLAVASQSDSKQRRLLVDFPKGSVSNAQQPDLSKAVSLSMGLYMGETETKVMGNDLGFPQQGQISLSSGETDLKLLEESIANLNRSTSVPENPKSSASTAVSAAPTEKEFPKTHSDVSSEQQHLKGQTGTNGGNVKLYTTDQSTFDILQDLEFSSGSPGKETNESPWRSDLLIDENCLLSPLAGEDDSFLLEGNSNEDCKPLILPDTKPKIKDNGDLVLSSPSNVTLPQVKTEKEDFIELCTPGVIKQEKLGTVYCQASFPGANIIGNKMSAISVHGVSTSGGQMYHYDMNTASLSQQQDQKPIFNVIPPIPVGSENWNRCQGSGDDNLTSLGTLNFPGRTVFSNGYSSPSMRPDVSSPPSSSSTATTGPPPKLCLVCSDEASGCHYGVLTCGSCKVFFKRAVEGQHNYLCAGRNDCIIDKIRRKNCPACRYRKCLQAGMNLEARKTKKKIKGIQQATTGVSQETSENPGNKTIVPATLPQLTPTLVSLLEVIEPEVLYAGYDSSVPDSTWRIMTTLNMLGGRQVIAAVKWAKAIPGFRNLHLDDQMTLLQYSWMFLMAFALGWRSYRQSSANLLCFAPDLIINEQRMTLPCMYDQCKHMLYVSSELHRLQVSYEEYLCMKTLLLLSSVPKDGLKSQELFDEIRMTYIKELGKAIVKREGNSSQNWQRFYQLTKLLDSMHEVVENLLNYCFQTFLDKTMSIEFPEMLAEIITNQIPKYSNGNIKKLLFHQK
# assay.text: Glucocorticoid receptor binding assay (fluorescence polarisation)
# condition.parameters: competition with Alexa 555 fluorescently-labelled dexamethasone derivative, full length glucocorticoid receptor; read-out: glucocorticoid binding pIC50 (converted)

Recorded IC50, per entry:
- compound: "CCN(CC(O)(CNC(=O)c1cnn(-c2ccc(F)cc2)c1N)C(F)(F)F)C(=O)c1c(F)cccc1C(F)(F)F (racemic) [Example 23 (racemic)]"
  target.or.test.system: "glucocorticoid receptor (Homo sapiens)"
  IC50: "≤ 316 nM"
- compound: "CN(CC(O)(CNC(=O)c1cnn(-c2ccc(F)cc2)c1N)C(F)(F)F)C(=O)c1c(F)cccc1Cl (racemic) [Example 9 (racemic)]"
  target.or.test.system: "glucocorticoid receptor (Homo sapiens)"
  IC50: "≤ 316 nM"
- compound: "Nc1c(C(=O)NCC(O)(CNC(=O)c2c(Cl)cccc2C(F)(F)F)C(F)(F)F)cnn1-c1ccc(F)cc1 (racemic) [Example 44 (racemic)]"
  target.or.test.system: "glucocorticoid receptor (Homo sapiens)"
  IC50: "≤ 316 nM"
- compound: "CN(CC(O)(CNC(=O)c1cnn(-c2ccc(F)cc2)c1N)C(F)(F)F)C(=O)c1c(C(F)(F)F)cccc1C(F)(F)F (racemic) [Example 22 (racemic)]"
  target.or.test.system: "glucocorticoid receptor (Homo sapiens)"
  IC50: "≤ 316 nM"
- compound: "CCN(CC(O)(CNC(=O)c1cnn(-c2ccc(F)cc2)c1N)C(F)(F)F)C(=O)c1c(F)cccc1F (racemic) [Example 5 (racemic)]"
  target.or.test.system: "glucocorticoid receptor (Homo sapiens)"
  IC50: "≤ 316 nM"
- compound: "CN(CC(O)(CNC(=O)c1cnn(-c2ccc(F)cc2)c1N)C(F)(F)F)C(=O)c1c(F)cccc1C(F)(F)F (racemic) [Example 21 (racemic)]"
  target.or.test.system: "glucocorticoid receptor (Homo sapiens)"
  IC50: "≤ 316 nM"
- compound: "Nc1c(C(=O)NCC(O)(CNC(=O)c2c(F)cccc2Br)C(F)(F)F)cnn1-c1ccc(F)cc1 (single isomer, unassigned) [Example 13 Enantiomer 1]"
  target.or.test.system: "glucocorticoid receptor (Homo sapiens)"
  IC50: "≤ 316 nM"
- compound: "Nc1c(C(=O)NCC(O)(CNC(=O)c2c(C(F)(F)F)cccc2C(F)(F)F)C(F)(F)F)cnn1-c1ccc(F)cc1 (single isomer, unassigned) [Example 15 Enantiomer 1]"
  target.or.test.system: "glucocorticoid receptor (Homo sapiens)"
  IC50: "≤ 316 nM"

Please indicate recorded IC50 of CCN(CC(O)(CNC(=O)c1cnn(-c2ccc(F)cc2)c1N)C(F)(F)F)C(=O)c1c(F)cccc1Cl (racemic) [Example 4 (racemic)] measured with glucocorticoid receptor (Homo sapiens). ≤ 316 nM

Please indicate recorded IC50 of CCN(CC(O)(CNC(=O)c1cnn(-c2ccc(F)cc2)c1N)C(F)(F)F)C(=O)c1c(OC(F)F)cccc1OC(F)F (racemic) [Example 26 (racemic)] measured with glucocorticoid receptor (Homo sapiens). ≤ 316 nM

Please indicate recorded IC50 of Nc1c(C(=O)NCC(O)(CNC(=O)c2c(Cl)cccc2OC(F)F)C(F)(F)F)cnn1-c1ccc(F)cc1 (single isomer, unassigned) [Example 14 Enantiomer 1] measured with glucocorticoid receptor (Homo sapiens). ≤ 316 nM

---

List of Emax values.
# System: NFκB
# assay.text: NFκB agonist assay in A549 SPAP cells;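 further: maximum inhibition of the TNFα-induced NFκB-driven signal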
# Type: cell-based
# condition.parameters: Homo sapiens, A549, A549 SPAP cells; >85% = full agonist, ≧20% = partial or full agonist; read-out: average maximum asymptote in the NFkB assay
# From the text: Human lung carcinoma A549 cell line (ECACC No. 86012804) has been stably transfected in house with a plasmid containing an ELAM promoter sequence that has a NFκB response element within it. Stimulation of the cell line with TNFα results in intracellular signal transduction and ultimately translocation of NFκB into the nucleus. This activates the inserted DNA sequence resulting in transcription of the integrated SPAP gene, which is quantified using a colorimetric assay. […]

Recorded Emax, per entry:
- molecule: "Nc1c(C(=O)NCC(O)(CN(CCF)C(=O)c2c(Cl)cccc2Cl)C(F)(F)F)cnn1-c1ccc(F)cc1 (racemic) [Example 28 (racemic)]"
  Emax: "> 85%"
- molecule: "CN(CC(O)(CNC(=O)c1cnn(-c2ccc(F)cc2)c1N)C(F)(F)F)C(=O)c1c(Cl)cccc1Br (racemic) [Example 16 (racemic)]"
  Emax: "> 85%"
- molecule: "CCN(CC(O)(CNC(=O)c1cnn(-c2ccc(F)cc2)c1N)C(F)(F)F)C(=O)c1c(OC(F)F)cccc1OC(F)F (racemic) [Example 26 (racemic)]"
  Emax: "> 85%"

Please indicate recorded Emax of CCN(CC(O)(CNC(=O)c1cnn(-c2ccc(F)cc2)c1N)C(F)(F)F)C(=O)c1c(Cl)cccc1Cl (racemic) [Example 2 (racemic)] measured with NFκB. > 85%

Please indicate recorded Emax of CCN(CC(O)(CNC(=O)c1cnn(-c2ccc(F)c(F)c2)c1N)C(F)(F)F)C(=O)c1c(F)cccc1F (racemic) [Example 33 (racemic)] measured with NFκB. > 85%

Please indicate recorded Emax of CN(CC(O)(CNC(=O)c1cnn(-c2ccc(F)cc2)c1N)C(F)(F)F)C(=O)c1c(C(F)(F)F)cccc1C(F)(F)F (racemic) [Example 22 (racemic)] measured with NFκB. > 85%

---

# Test system: NFκB
# assay.text: NFκB agonist assay in A549 SPAP cells;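 further: maximum inhibition of the TNFα-induced NFκB-driven signal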
# Assay type: cell-based
# condition.parameters: Homo sapiens, A549, A549 SPAP cells; >85% = full agonist, ≧20% = partial or full agonist; read-out: average maximum asymptote in the NFkB assay
readout.label: Emax

Provide Emax value for the following molecule: CCN(CC(O)(CNC(=O)c1cnn(-c2ccc(F)cc2)c1N)C(F)(F)F)C(=O)c1c(F)cccc1F (racemic) [Example 5 (racemic)] > 85%

Provide Emax value for the following molecule: Nc1c(C(=O)NCC(O)(CNC(=O)c2c(C(F)(F)F)cccc2C(F)(F)F)C(F)(F)F)cnn1-c1ccc(F)cc1 (racemic) [Example 15 (racemic)] ≥ 20%

Provide Emax value for the following molecule: Nc1c(C(=O)NCC(O)(CNC(=O)c2c(Cl)cccc2C(F)(F)F)C(F)(F)F)cnn1-c1ccc(F)cc1 (racemic) [Example 44 (racemic)] ≥ 20%

---

# Test system: NFκB
# assay.text: NFκB agonist assay in A549 SPAP cells;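 further: maximum inhibition of the TNFα-induced NFκB-driven signal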
# Assay type: cell-based
# condition.parameters: Homo sapiens, A549, A549 SPAP cells; >85% = full agonist, ≧20% = partial or full agonist; read-out: average maximum asymptote in the NFkB assay
readout.label: Emax

- compound: "Nc1c(C(=O)NCC(O)(CN(CCF)C(=O)c2c(F)cccc2C(F)(F)F)C(F)(F)F)cnn1-c1ccc(F)cc1 (racemic) [Example 18 (racemic)]"
  Emax: "> 85%"
- compound: "Nc1c(C(=O)NCC(O)(CNC(=O)c2c(C(F)F)cccc2C(F)F)C(F)(F)F)cnn1-c1ccc(F)cc1 (racemic) [Example 43 (racemic)]"
  Emax: "≥ 20%"
- compound: "Nc1c(C(=O)NCC(O)(CNC(=O)c2c(Cl)cccc2Br)C(F)(F)F)cnn1-c1ccc(F)cc1 (single isomer, unassigned) [Example 12 Enantiomer 1]"
  Emax: "≥ 20%"
- compound: "Nc1c(C(=O)NCC(O)(CNC(=O)c2c(C(F)F)cccc2C(F)F)C(F)(F)F)cnn1-c1ccc(F)cc1 (single isomer, unassigned) [Example 43 Enantiomer 1]"
  Emax: "≥ 20%"
- compound: "CCN(CC(O)(CNC(=O)c1cnn(-c2cccc(Cl)c2)c1N)C(F)(F)F)C(=O)c1c(F)cccc1F (racemic) [Example 41 (racemic)]"
  Emax: "> 85%"
- compound: "Nc1c(C(=O)NCC(O)(CN(CCF)C(=O)c2c(F)cccc2F)C(F)(F)F)cnn1-c1ccc(F)cc1 (racemic) [Example 17 (racemic)]"
  Emax: "> 85%"
- compound: "CCN(CC(O)(CNC(=O)c1cnn(-c2ccc(F)cc2)c1N)C(F)(F)F)C(=O)c1c(F)cccc1C(F)(F)F (racemic) [Example 23 (racemic)]"
  Emax: "> 85%"
- compound: "CCN(CC(O)(CNC(=O)c1cnn(-c2ccc(F)cc2F)c1N)C(F)(F)F)C(=O)c1c(F)cccc1F (racemic) [Example 34 (racemic)]"
  Emax: "> 85%"

Proceeding to the next compound to report its Emax.
Provide Emax value for the following compound: Nc1c(C(=O)NCC(O)(CNC(=O)c2c(Cl)cccc2OC(F)F)C(F)(F)F)cnn1-c1ccc(F)cc1 (single isomer, unassigned) [Example 14 Enantiomer 1] ≥ 20%
